# experimentalTarget: T1, human PD-L1 (human, UniProt Q9NZQ7 19-290)
# T1 construct: also called huPD-L1; CD274
# T1 sequence (Q9NZQ7 19-290): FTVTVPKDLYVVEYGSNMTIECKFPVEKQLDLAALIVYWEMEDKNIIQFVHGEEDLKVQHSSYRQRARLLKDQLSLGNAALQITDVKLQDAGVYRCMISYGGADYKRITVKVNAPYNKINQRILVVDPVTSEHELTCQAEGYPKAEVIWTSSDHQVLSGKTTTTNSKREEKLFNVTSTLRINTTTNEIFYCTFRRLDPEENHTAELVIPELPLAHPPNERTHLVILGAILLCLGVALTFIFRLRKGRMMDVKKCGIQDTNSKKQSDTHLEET
# assayComment: flow cytometry, CHO cells stably expressing PD-L1
Listing of recorded MFI at 33.3 nM by entry.
Hi! Could you send only the number? It should be in MFI, unit omitted.

Field: example entries. Status: answers known.
Reported MFI at 33.3 nM, binder CD80 IgV-Fc T13R/E35D/M47L/V68M (Fc fusion, not shown: a dimerising Fc or GST) VIHVTKEVKEVARLSCGHNVSVEELAQTRIYWQKDKKMVLTMMSGDLNIWPEYKNRTIFDITNNLSIMILALRPSDEGTYECVVLKYEKDAFKREHLAEVTLSVKAD : ____ 20000

Another binder: CD80 IgV-Fc T13R/Q33R/E35D/M47L/V68M/L85M (Fc fusion, not shown: a dimerising Fc or GST) VIHVTKEVKEVARLSCGHNVSVEELAQTRIYWRKDKKMVLTMMSGDLNIWPEYKNRTIFDITNNLSIMILALRPSDEGTYECVVMKYEKDAFKREHLAEVTLSVKAD 18900

Another binder: CD80 IgV-Fc T13R/Q33R/E35D/M38I/M47L/V68M (Fc fusion, not shown: a dimerising Fc or GST) VIHVTKEVKEVARLSCGHNVSVEELAQTRIYWRKDKKIVLTMMSGDLNIWPEYKNRTIFDITNNLSIMILALRPSDEGTYECVVLKYEKDAFKREHLAEVTLSVKAD 4480

Another binder: CD80 IgV-Fc T13R/Q27L/Q33L/E35D/T41S/M47V/N48K/V68M/L85M (Fc fusion, not shown: a dimerising Fc or GST) VIHVTKEVKEVARLSCGHNVSVEELALTRIYWLKDKKMVLSMMSGDVKIWPEYKNRTIFDITNNLSIMILALRPSDEGTYECVVMKYEKDAFKREHLAEVTLSVKAD 3270

Another binder: CD80 IgV-Fc T13R/Q33L/E35D/M47V/T62S/V68M/L85M (Fc fusion, not shown: a dimerising Fc or GST) VIHVTKEVKEVARLSCGHNVSVEELAQTRIYWLKDKKMVLTMMSGDVNIWPEYKNRTIFDISNNLSIMILALRPSDEGTYECVVMKYEKDAFKREHLAEVTLSVKAD 3970

Another binder: CD80 IgV-Fc V22D/E24D/E35D/M47L/V68M/L85M/D90G (Fc fusion, not shown: a dimerising Fc or GST) VIHVTKEVKEVATLSCGHNVSDEDLAQTRIYWQKDKKMVLTMMSGDLNIWPEYKNRTIFDITNNLSIMILALRPSDEGTYECVVMKYEKGAFKREHLAEVTLSVKAD 19000

Another binder: CD80 WT IgV-Fc (Fc fusion, not shown: a dimerising Fc or GST, Wild-type control; also called WT CD80-IgV-Fc) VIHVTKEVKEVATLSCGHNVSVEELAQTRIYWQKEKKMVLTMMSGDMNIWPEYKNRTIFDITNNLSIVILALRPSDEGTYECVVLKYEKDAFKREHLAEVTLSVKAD 44

Another binder: CD80 IgV-Fc V22D/E24D/E35D/M47L/V68M (Fc fusion, not shown: a dimerising Fc or GST) VIHVTKEVKEVATLSCGHNVSDEDLAQTRIYWQKDKKMVLTMMSGDLNIWPEYKNRTIFDITNNLSIMILALRPSDEGTYECVVLKYEKDAFKREHLAEVTLSVKAD 15400

Then there is this binder:
Reported MFI at 33.3 nM, binder CD80 IgV-Fc T13R/Q33R/E35D/M38I/M47L/V68M/L85M/R94Q (Fc fusion, not shown: a dimerising Fc or GST) VIHVTKEVKEVARLSCGHNVSVEELAQTRIYWRKDKKIVLTMMSGDLNIWPEYKNRTIFDITNNLSIMILALRPSDEGTYECVVMKYEKDAFKQEHLAEVTLSVKAD : ____ 20400

The origin of these recorded values is patent US20210130436A1.
